DETAILS: in ethanol, 303.15 K
ENDPOINT_NAME: solubility (mole fraction)

>>> experimental_result("CC(C)OC(=O)[C@H](C)N[P@](=O)(OC[C@H]1O[C@@H](n2ccc(=O)[nH]c2=O)[C@](C)(F)[C@@H]1O)Oc1ccccc1")
0.0599

----------
DETAILS: in acetone, 303.15 K
ENDPOINT_NAME: solubility (mole fraction)

>>> experimental_result("CC(C)OC(=O)[C@H](C)N[P@](=O)(OC[C@H]1O[C@@H](n2ccc(=O)[nH]c2=O)[C@](C)(F)[C@@H]1O)Oc1ccccc1")
0.0796

----------
DETAILS: in cyclohexane, 288.15 K
ENDPOINT_NAME: solubility (mole fraction)

>>> experimental_result("CC(C)OC(=O)[C@H](C)N[P@](=O)(OC[C@H]1O[C@@H](n2ccc(=O)[nH]c2=O)[C@](C)(F)[C@@H]1O)Oc1ccccc1")
"9.4e-07"

----------
DETAILS: in n-butanol, 318.15 K
ENDPOINT_NAME: solubility (mole fraction)

>>> experimental_result("CC(C)OC(=O)[C@H](C)N[P@](=O)(OC[C@H]1O[C@@H](n2ccc(=O)[nH]c2=O)[C@](C)(F)[C@@H]1O)Oc1ccccc1")
0.0501

----------
DETAILS: in cyclohexane, 303.15 K
ENDPOINT_NAME: solubility (mole fraction)

>>> experimental_result("CC(C)OC(=O)[C@H](C)N[P@](=O)(OC[C@H]1O[C@@H](n2ccc(=O)[nH]c2=O)[C@](C)(F)[C@@H]1O)Oc1ccccc1")
"3.05e-06"

----------
DETAILS: in water, 313.15 K
ENDPOINT_NAME: solubility (mole fraction)

>>> experimental_result("CC(C)OC(=O)[C@H](C)N[P@](=O)(OC[C@H]1O[C@@H](n2ccc(=O)[nH]c2=O)[C@](C)(F)[C@@H]1O)Oc1ccccc1")
0.000131

----------
DETAILS: in n-butanol, 308.15 K
ENDPOINT_NAME: solubility (mole fraction)

>>> experimental_result("CC(C)OC(=O)[C@H](C)N[P@](=O)(OC[C@H]1O[C@@H](n2ccc(=O)[nH]c2=O)[C@](C)(F)[C@@H]1O)Oc1ccccc1")
0.034

----------
DETAILS: in ethanol, 308.15 K
ENDPOINT_NAME: solubility (mole fraction)

>>> experimental_result("CC(C)OC(=O)[C@H](C)N[P@](=O)(OC[C@H]1O[C@@H](n2ccc(=O)[nH]c2=O)[C@](C)(F)[C@@H]1O)Oc1ccccc1")
0.0712

----------
DETAILS: in toluene, 278.15 K
ENDPOINT_NAME: solubility (mole fraction)

>>> experimental_result("CC(C)OC(=O)[C@H](C)N[P@](=O)(OC[C@H]1O[C@@H](n2ccc(=O)[nH]c2=O)[C@](C)(F)[C@@H]1O)Oc1ccccc1")
"4.46e-06"

----------
DETAILS: in toluene, 293.15 K
ENDPOINT_NAME: solubility (mole fraction)

>>> experimental_result("CC(C)OC(=O)[C@H](C)N[P@](=O)(OC[C@H]1O[C@@H](n2ccc(=O)[nH]c2=O)[C@](C)(F)[C@@H]1O)Oc1ccccc1")
"1.75e-05"

----------
DETAILS: in toluene, 303.15 K
ENDPOINT_NAME: solubility (mole fraction)

>>> experimental_result("CC(C)OC(=O)[C@H](C)N[P@](=O)(OC[C@H]1O[C@@H](n2ccc(=O)[nH]c2=O)[C@](C)(F)[C@@H]1O)Oc1ccccc1")
"4.02e-05"

----------
DETAILS: in n-butanol, 288.15 K
ENDPOINT_NAME: solubility (mole fraction)

>>> experimental_result("CC(C)OC(=O)[C@H](C)N[P@](=O)(OC[C@H]1O[C@@H](n2ccc(=O)[nH]c2=O)[C@](C)(F)[C@@H]1O)Oc1ccccc1")
0.0144

----------
DETAILS: in ethanol, 278.15 K
ENDPOINT_NAME: solubility (mole fraction)

>>> experimental_result("CC(C)OC(=O)[C@H](C)N[P@](=O)(OC[C@H]1O[C@@H](n2ccc(=O)[nH]c2=O)[C@](C)(F)[C@@H]1O)Oc1ccccc1")
0.022

----------
DETAILS: in acetonitrile, 308.15 K
ENDPOINT_NAME: solubility (mole fraction)

>>> experimental_result("CC(C)OC(=O)[C@H](C)N[P@](=O)(OC[C@H]1O[C@@H](n2ccc(=O)[nH]c2=O)[C@](C)(F)[C@@H]1O)Oc1ccccc1")
0.019

----------
DETAILS: in acetonitrile, 278.15 K
ENDPOINT_NAME: solubility (mole fraction)

>>> experimental_result("CC(C)OC(=O)[C@H](C)N[P@](=O)(OC[C@H]1O[C@@H](n2ccc(=O)[nH]c2=O)[C@](C)(F)[C@@H]1O)Oc1ccccc1")
0.00484

----------
DETAILS: in cyclohexane, 318.15 K
ENDPOINT_NAME: solubility (mole fraction)

>>> experimental_result("CC(C)OC(=O)[C@H](C)N[P@](=O)(OC[C@H]1O[C@@H](n2ccc(=O)[nH]c2=O)[C@](C)(F)[C@@H]1O)Oc1ccccc1")
"8.66e-06"

----------
DETAILS: in ethyl acetate, 303.15 K
ENDPOINT_NAME: solubility (mole fraction)

>>> experimental_result("CC(C)OC(=O)[C@H](C)N[P@](=O)(OC[C@H]1O[C@@H](n2ccc(=O)[nH]c2=O)[C@](C)(F)[C@@H]1O)Oc1ccccc1")
0.0108

----------
DETAILS: in ethyl acetate, 318.15 K
ENDPOINT_NAME: solubility (mole fraction)

>>> experimental_result("CC(C)OC(=O)[C@H](C)N[P@](=O)(OC[C@H]1O[C@@H](n2ccc(=O)[nH]c2=O)[C@](C)(F)[C@@H]1O)Oc1ccccc1")
0.0228

----------
DETAILS: in ethyl acetate, 308.15 K
ENDPOINT_NAME: solubility (mole fraction)

>>> experimental_result("CC(C)OC(=O)[C@H](C)N[P@](=O)(OC[C@H]1O[C@@H](n2ccc(=O)[nH]c2=O)[C@](C)(F)[C@@H]1O)Oc1ccccc1")
0.0139

----------
DETAILS: in n-butanol, 313.15 K
ENDPOINT_NAME: solubility (mole fraction)

>>> experimental_result("CC(C)OC(=O)[C@H](C)N[P@](=O)(OC[C@H]1O[C@@H](n2ccc(=O)[nH]c2=O)[C@](C)(F)[C@@H]1O)Oc1ccccc1")
0.0413

----------
DETAILS: in acetone, 293.15 K
ENDPOINT_NAME: solubility (mole fraction)

>>> experimental_result("CC(C)OC(=O)[C@H](C)N[P@](=O)(OC[C@H]1O[C@@H](n2ccc(=O)[nH]c2=O)[C@](C)(F)[C@@H]1O)Oc1ccccc1")
0.0538

----------
DETAILS: in ethyl acetate, 298.15 K
ENDPOINT_NAME: solubility (mole fraction)

>>> experimental_result("CC(C)OC(=O)[C@H](C)N[P@](=O)(OC[C@H]1O[C@@H](n2ccc(=O)[nH]c2=O)[C@](C)(F)[C@@H]1O)Oc1ccccc1")
0.0084

----------
DETAILS: in water, 308.15 K
ENDPOINT_NAME: solubility (mole fraction)

>>> experimental_result("CC(C)OC(=O)[C@H](C)N[P@](=O)(OC[C@H]1O[C@@H](n2ccc(=O)[nH]c2=O)[C@](C)(F)[C@@H]1O)Oc1ccccc1")
"9.6e-05"

----------
DETAILS: in toluene, 313.15 K
ENDPOINT_NAME: solubility (mole fraction)

>>> experimental_result("CC(C)OC(=O)[C@H](C)N[P@](=O)(OC[C@H]1O[C@@H](n2ccc(=O)[nH]c2=O)[C@](C)(F)[C@@H]1O)Oc1ccccc1")
"9.44e-05"

----------
DETAILS: in toluene, 298.15 K
ENDPOINT_NAME: solubility (mole fraction)

>>> experimental_result("CC(C)OC(=O)[C@H](C)N[P@](=O)(OC[C@H]1O[C@@H](n2ccc(=O)[nH]c2=O)[C@](C)(F)[C@@H]1O)Oc1ccccc1")
"2.67e-05"

----------
DETAILS: in ethanol, 313.15 K
ENDPOINT_NAME: solubility (mole fraction)

>>> experimental_result("CC(C)OC(=O)[C@H](C)N[P@](=O)(OC[C@H]1O[C@@H](n2ccc(=O)[nH]c2=O)[C@](C)(F)[C@@H]1O)Oc1ccccc1")
0.0842

----------
DETAILS: in acetonitrile, 288.15 K
ENDPOINT_NAME: solubility (mole fraction)

>>> experimental_result("CC(C)OC(=O)[C@H](C)N[P@](=O)(OC[C@H]1O[C@@H](n2ccc(=O)[nH]c2=O)[C@](C)(F)[C@@H]1O)Oc1ccccc1")
0.00812

----------
DETAILS: in acetonitrile, 298.15 K
ENDPOINT_NAME: solubility (mole fraction)

>>> experimental_result("CC(C)OC(=O)[C@H](C)N[P@](=O)(OC[C@H]1O[C@@H](n2ccc(=O)[nH]c2=O)[C@](C)(F)[C@@H]1O)Oc1ccccc1")
0.0127
